# System: morningglory
# experiment: Test A pre-/postemergence herbicide test
# Type: in vivo, Ipomoea spp.
# settings: Postemergence, 2000 g ai/ha; 0 to 100 scale, 0 no effect, 100 complete control
Plant response rating, Morningglory: recorded values

{"smiles_record": "CCn1nc(C(C)(C)C)cc1C(=O)Nc1cccc(C(=O)N2CC=CC2)c1", "Plant response rating, Morningglory": 35}
{"smiles_record": "Cc1nc(C(C)(C)C)sc1C(=O)Nc1cccc(C(=O)NCC(F)(F)F)c1", "Plant response rating, Morningglory": 30}
{"smiles_record": "CC(=NO)c1ccnc(NC(=O)c2cc(C(C)(C)C)nn2C)n1", "Plant response rating, Morningglory": 5}
{"smiles_record": "C=CCOC(=O)c1cccc(NC(=O)c2cc(C(C)(C)C)nn2CC)c1C", "Plant response rating, Morningglory": 20}
